// reported % Inhibition of Apyrase per item
Test system: apyrase
Experiment: Screen for apyrase inhibitors (Method 1, in vitro phosphate-release absorbance assay)
Assay type: biochemical
Conditions: inhibitor conc at 1 mM stock, 1 hr room temperature, absorbance 630 nm; rounded average of two assay results

molSmiles: Cc1n[nH]c(C)c1CCC(=O)Nc1cccc(NC(=O)c2cccc(S(=O)(=O)Nc3ccc(Br)cc3)c2)c1
% Inhibition of Apyrase, %: 26
--
molSmiles: CN(c1ccccc1)S(=O)(=O)c1cccc(NC(=O)c2cnc3n(c2=O)CCS3)c1
% Inhibition of Apyrase, %: 55
--
molSmiles: Cc1ccc(S(=O)(=O)Nc2cccc(C(=O)Nc3cccc(C)c3)c2)cc1
% Inhibition of Apyrase, %: 59
--
molSmiles: O=C(Nc1ccc(N2CCOCC2)cc1)c1ccc(S(=O)(=O)N2CCCc3ccccc32)cc1
% Inhibition of Apyrase, %: 10
--
molSmiles: O=C(Nc1cccc(S(=O)(=O)Nc2ccccc2Cl)c1)c1ccc(Cl)nc1
% Inhibition of Apyrase, %: 45
--
molSmiles: CCOc1ccc(NC(=O)c2cccc(S(=O)(=O)Nc3ccc4c(c3)OCO4)c2)cc1OC
% Inhibition of Apyrase, %: 44
--
molSmiles: O=C(Nc1cccc(Cl)c1)c1cccc(S(=O)(=O)Nc2ccc3c(c2)OCO3)c1
% Inhibition of Apyrase, %: 70
--
molSmiles: O=C(Nc1ccccc1OC(F)F)c1ccc(S(=O)(=O)Nc2ccccc2F)cc1
% Inhibition of Apyrase, %: 66
--
molSmiles: CC(C)(C)c1ccc(C(=O)Nc2ccccc2NS(=O)(=O)c2cccc(S(N)(=O)=O)c2)cc1
% Inhibition of Apyrase, %: 29

###

Test system: apyrase
Assay: Screen for apyrase inhibitors (Method 1, in vitro phosphate-release absorbance assay)
Type: biochemical
Conditions: inhibitor conc at 1 mM stock, 1 hr room temperature, absorbance 630 nm; rounded average of two assay results
Consider the following partition of reported % Inhibition of Apyrase into named classes: range 1 (below 40%), range 2 (40% to below 60%), range 3 (60% or more)

compound: O=C(c1ccccc1NS(=O)(=O)c1cccc(C(F)(F)F)c1)N1CCc2ccccc21
cat: range 2
//
compound: N#Cc1ccc(NC(=O)c2ccc(Cl)c(S(=O)(=O)N3CCc4ccccc43)c2)cc1
cat: range 2
//
compound: O=C(Nc1ccc(-n2cnnn2)cc1)c1cccc(S(=O)(=O)N2CCc3ccccc32)c1
cat: range 2
//
compound: COc1ccc2c(c1)CCCN2C(=O)c1ccc(S(=O)(=O)Nc2ccccc2F)cc1
cat: range 2
//
compound: O=C(Nc1cc(Cl)ccc1NS(=O)(=O)c1ccccc1F)c1ccc2c(c1)OCO2
cat: range 2
//
compound: CCOc1ccc(S(=O)(=O)Nc2cccc(C(=O)Nc3nnc[nH]3)c2)cc1
cat: range 1
//
compound: COc1ccc(S(=O)(=O)N2CCc3ccccc32)cc1C(=O)Nc1ccccc1F
cat: range 2
//
compound: O=C(c1ccc(NS(=O)(=O)c2ccc3c(c2)OCCCO3)cc1)N1CCc2ccccc21
cat: range 2
//
compound: Cc1cc(C(=O)Nc2cccc(S(=O)(=O)N(C)c3ccccc3)c2)on1
cat: range 2
//
compound: O=C(Nc1ccccc1N1CCOCC1)c1cccc(S(=O)(=O)N2CCc3ccccc32)c1
cat: range 2
//
compound: O=C(Nc1cccc(Br)c1)c1ccc(NS(=O)(=O)c2cccc([N+](=O)[O-])c2)cc1
cat: range 2
//
compound: COc1ccc(C(=O)Nc2ccc(Cl)cc2)cc1S(=O)(=O)Nc1ccc(Br)cc1
cat: range 1
//
compound: O=C(CNC(=O)c1ccc(Br)cc1)Nc1cccc(S(=O)(=O)Nc2ccc(Br)cc2)c1
cat: range 3
//
compound: Cc1ccc(C(=O)Nc2cccc(S(=O)(=O)Nc3ccc(Br)cc3)c2)cc1
cat: range 3
//
compound: O=C(Nc1ccc(C(F)(F)F)cc1)c1cccc(S(=O)(=O)Nc2ccc3c(c2)OCO3)c1
cat: range 3
//
compound: O=C(c1cccc(S(=O)(=O)Nc2cccc(Cl)c2)c1)N1CCc2ccccc21
cat: range 2
//
compound: O=C(Nc1ccccc1)c1cccc(NS(=O)(=O)c2cccs2)c1
cat: range 1
//
compound: COc1ccc(NC(=O)c2cccc(S(=O)(=O)N(C)c3ccc(OC)cc3)c2)cc1
cat: range 2
//
compound: O=C(Nc1cccc(C(F)(F)F)c1)c1ccccc1S(=O)(=O)N1CCCCC1
cat: range 1
//
compound: COc1ccccc1NS(=O)(=O)c1cccc(C(=O)Nc2cccc(C(F)(F)F)c2)c1
cat: range 2
//
compound: Cc1ccc(NC(=O)c2cccc(NS(=O)(=O)c3cccs3)c2)c(C)c1
cat: range 1
//
compound: CCOc1ccc(NS(=O)(=O)c2cccc(C(=O)Nc3ccc(OC)cc3)c2)cc1
cat: range 1
//
compound: COc1ccc(NC(=O)c2ccc(Cl)c(S(=O)(=O)N3CCc4ccccc43)c2)cc1OC
cat: range 2
//
compound: O=C(Nc1ccc(Br)cn1)c1cccc(NS(=O)(=O)c2ccc(F)c(Cl)c2)c1
cat: range 1
//
compound: Cc1ccc(C(=O)Nc2ccccc2S(=O)(=O)Nc2ccccc2)cc1F [I-236]
cat: range 1
//
compound: CC1Cc2ccccc2N1S(=O)(=O)c1cccc(C(=O)Nc2ccc(F)c([N+](=O)[O-])c2)c1 (stereo not drawn)
cat: range 3
//
compound: CCOc1ccc(N(C)S(=O)(=O)c2ccc(C)c(C(=O)N3c4ccccc4CC3C)c2)cc1 (stereo not drawn)
cat: range 2
//
compound: COc1ccc(Cl)cc1NS(=O)(=O)c1cccc(C(=O)N2CCc3ccccc32)c1
cat: range 2
//
compound: O=C(Nc1ccc(OC(F)F)cc1)c1ccccc1NS(=O)(=O)c1ccc(F)cc1
cat: range 1
//
compound: O=C(Nc1ccc(OC(F)F)cc1)c1cccc(S(=O)(=O)Nc2ccc3c(c2)OCO3)c1
cat: range 3
//
compound: O=C(/C=C/c1cccc(Cl)c1)Nc1cccc(S(=O)(=O)Nc2ccc(Br)cc2)c1
cat: range 3
//
compound: Cc1ccc(N(C)S(=O)(=O)c2cccc(C(=O)N3c4ccccc4CC3C)c2)cc1 (stereo not drawn)
cat: range 2
//
compound: O=C(Nc1cc(Cl)ccc1NS(=O)(=O)c1ccccc1F)c1ccccc1
cat: range 1
